Target: T1, APBA1_2, Q02410
T1 sequence (Q02410 742-832, limits assumed, looked up): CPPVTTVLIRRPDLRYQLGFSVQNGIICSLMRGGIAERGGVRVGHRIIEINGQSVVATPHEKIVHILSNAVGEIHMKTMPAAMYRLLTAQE
Experiment: holdup assay
Design: key: below the threshold = too weak to quantify, mostly under pKd 3.1 to 4
Details: plain residues with an end cap or a label only (N-terminal biotin on a linker: ado-ado)
recorded metric: pKd
API note: the answer field is a bare number with no unit suffix.

Q) May I ask what pKd has been recorded for SFISKKEWYV [NECTIN1, Q15223] ?
A) 3.82

Q) Try this binder next: MQHQRTHTRV [ZSCAN30, Q86W11]
A) 3.52

Q) Try this binder next: RFQQRMQTHV [KIRREL1, Q96J84]
A) 3.92

Q) Try this binder next: PPGKHLVTEV [KCNA7, Q96RP8]
A) 4.17

Q) Try this binder next: PSHPRLQTHV [KIRREL2, Q6UWL6]
A) 3.74

Q) Try this binder next: AAVENKVTDL [PLXNB1, O43157]
A) 4.23

Q) Try this binder next: EPQYQPGENL [SRC, P12931]
A) 3.59

Q) Try this binder next: AQRARSPSDV [GPR12, P47775]
A) 4.14
